# Test system: OVCAR-5
# assayRemarks: NCI tumour cell line growth inhibition, 48 h
The source made the active and inactive calls. Rule as the data show it: active = GI50 up to about 1.1 µM and inactive = higher.
parameterMeasured: GI50

{"molecule": "CCOC(=O)n1ccc2c(C(=O)OC)c(C(=O)OC)cc(/C(=C/C(=O)OC)C(=O)OC)c21", "GI50": "> 100 µM (inactive)"}

Consider the molecule COc1ccc(C23OCC(Cc4cc(OC)c(OC)cc42)C3CO)cc1OC (stereo not given) and give its recorded GI50.
> 100 µM (inactive)

Answer with the recorded GI50 of CC12Oc3ccc4ccccc4c3C1c1c(ccc3ccccc13)O2 (stereo not given) only.
> 100 µM (inactive)

Indicate the recorded GI50 value for this molecule: CN(C)/N=C1\CC(c2ccccc2)C(C#N)(C#N)C1(C#N)C#N (stereo not given)
25.6 µM (inactive)

Given "Cc1occc(=O)c1O" , respond with its GI50.
> 100 µM (inactive)

Answer with the recorded GI50 of CCOC(=O)C12CCC(=O)C=C1[C@@H](C)C(=O)CC2 (stereo not given in full) only.
> 100 µM (inactive)
